# test.target: human S1PR4 (Homo sapiens, UniProt O95977)
# Construct: host or cells: CHO-K1
# Sequence (O95977 whole entry): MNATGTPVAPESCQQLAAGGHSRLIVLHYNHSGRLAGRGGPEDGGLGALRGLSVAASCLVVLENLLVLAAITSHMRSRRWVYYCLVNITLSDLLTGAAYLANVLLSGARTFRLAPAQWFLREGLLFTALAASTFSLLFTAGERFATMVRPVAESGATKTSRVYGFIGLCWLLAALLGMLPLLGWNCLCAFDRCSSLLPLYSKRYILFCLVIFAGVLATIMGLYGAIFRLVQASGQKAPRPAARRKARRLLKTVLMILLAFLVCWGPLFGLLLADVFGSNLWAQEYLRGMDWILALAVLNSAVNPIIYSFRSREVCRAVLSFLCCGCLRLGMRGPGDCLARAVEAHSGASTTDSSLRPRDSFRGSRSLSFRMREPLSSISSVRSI
# procedure.details: Intracellular Ca2+ release (FLIPR) agonist potency, S1P4
# Format: cell-based
# test.context: recombinant CHO-K1 cells expressing human S1PR4, aequorin, Gq/i5; Calcium 5 FLIPR; read-out: S1P4 EC50
measured.endpoint: EC50

molecule="O=C(O)C1CCN(C2CCc3cc(OCc4c(Cl)cccc4Cl)ccc3C2)CC1 (stereo not drawn) [Compound 31]" result_value="< 1000 nM"
molecule="O=C(O)C1CN(C2COc3cc(OCc4ccc(Cl)cc4)ccc3C2)C1 (stereo not drawn) [Compound 46]" result_value="> 1000 nM"
molecule="COc1cccc(COc2ccc3c(c2)CCC(OCC(=O)O)C3)c1 (stereo not drawn) [Compound 154]" result_value="> 1000 nM"
molecule="O=C(O)C1(NC2COc3cc(OCc4c(Cl)cccc4Cl)ccc3C2)CCC1 (stereo not drawn) [Compound 119]" result_value="> 1000 nM"
molecule="CCC1(C(=O)O)CN([C@@H]2COc3cc(OCc4c(Cl)cccc4Cl)ccc3C2)C1 [Compound 140]" result_value="> 1000 nM"

Provide EC50 for all items below, preserving their order.
1. CCc1cccc(Cl)c1COc1ccc2c(c1)CCC(OCC(=O)O)C2 (single isomer, unassigned) [Compound 239]
2. O=C(O)CCOC1CCc2cc(OCc3cccc(F)c3F)ccc2C1 (stereo not drawn) [Compound 186]
3. O=C(O)CC1CN(C2CCc3cc(OCc4c(Cl)cccc4Cl)ccc3C2)C1 (stereo not drawn) [Compound 78]

Key:
1: > 1000 nM; 2: > 1000 nM; 3: < 1000 nM

Sample CN(CCC(=O)O)C1CCc2cc(C#Cc3c(Cl)cccc3Cl)ccc2C1 (stereo not drawn) [Compound 13] ; EC50 observed: < 1000 nM

###

# test.target: human S1PR4 (Homo sapiens, UniProt O95977)
# Construct: host or cells: CHO-K1
# procedure.details: Intracellular Ca2+ release (FLIPR) agonist potency, S1P4
# Assay type: cell-based
# test.context: recombinant CHO-K1 cells expressing human S1PR4, aequorin, Gq/i5; Calcium 5 FLIPR; read-out: S1P4 EC50
# Method: Agonistic activity was measured using the method described below. Intracellular Ca^2+ Release Agonist potency and intrinsic activity was assessed by measurement of intracellular Ca^2+ release. […] Phospho-fingolimod was used as positive control. […] Measurements were performed using a fluorometric imaging plate reader FLIPR®tetra (Molecular Devices). […]
Structures can show the parent of a compound that is named as a salt.
measured.endpoint: EC50

// below: answered molecules
molecule="O=C(O)CNC1COc2cc(OCc3ccc(OCc4cccc(Cl)c4)cc3)ccc2C1 (stereo not drawn) [Compound 132]" result_value="> 1000 nM"
molecule="O=C(O)C1CN(C2COc3cc(C#Cc4cc(F)cc(F)c4)ccc3C2)C1 (stereo not drawn) [Compound 27]" result_value="< 1000 nM"
molecule="O=C(O)COC1CCc2cc(OCc3cccc(F)c3)ccc2C1 (stereo not drawn) [Compound 198]" result_value="> 1000 nM"
molecule="O=C(O)COC1COc2cc(OCc3c(F)ccc(Cl)c3F)ccc2C1 (stereo not drawn) [Compound 234]" result_value="> 1000 nM"
molecule="O=C(O)CCNC1CCc2cc(OCc3ccccc3Cl)ccc2C1 (stereo not drawn) [Compound 8]" result_value="< 1000 nM"

Provide EC50 for all items below, preserving their order.
1. O=C(O)CNC1CCc2cc(OCc3c(Cl)cccc3Cl)ccc2C1 (stereo not drawn) [Compound 75]
2. CCc1cccc(Cl)c1COc1ccc2c(c1)CCC1C2OCCN1CCC(=O)O (stereo not drawn) [Compound 82, hydrochloride]
3. COc1cc(F)cc(COc2ccc3c(c2)OCC(N2CC(C(=O)O)C2)C3)c1 (stereo not drawn) [Compound 100]
4. CCc1cccc(F)c1COc1ccc2c(c1)OCC(N1CCC(CC(=O)O)C1)C2 (stereo not drawn) [Compound 130]

Key:
["< 1000 nM", "< 1000 nM", "> 1000 nM", "< 1000 nM"]

The reported measurements were obtained from patent US10280159B2.
